Record: IC50 reported on EN PA (Influenza A virus).

Recorded IC50, per entry:
{"columns": ["compound", "study-system", "IC50"],
 "data": [
  ["O=C(O)c1nn(-c2ccccc2-c2ccccc2OC(F)(F)F)cc(O)c1=O [Compound 40]", "EN PA (Influenza A virus)", "100 to 1000 nM"],
  ["CNC(=O)c1nn(CC2(n3cc(Cl)c4cc(Cl)ccc43)CCCC2)cc(O)c1=O [Compound 899]", "EN PA (Influenza A virus)", "< 100 nM"],
  ["CCOC(=O)c1nn(-c2ccccc2S(=O)(=O)c2ccccc2)cc(O)c1=O [Compound 44]", "EN PA (Influenza A virus)", "≥ 1000 nM"],
  ["CC(C)(C)NC(=O)c1nn(CC2(c3ccc4ccccc4c3)CCCC2)cc(O)c1=O [Compound 829]", "EN PA (Influenza A virus)", "< 100 nM"],
  ["O=C(O)c1nn(-c2cccc(C(F)(F)F)c2)cc(O)c1=O [Compound 1]", "EN PA (Influenza A virus)", "100 to 1000 nM"]
]}

# value of IC50, EN PA (Influenza A virus), item CNC(=O)c1nn(CC(c2ccccc2)C2CCCCC2)cc(O)c1=O (stereo not drawn) [Compound 659] = 100 to 1000 nM

Result for CNC(=O)c1nn(CC2(n3c(C)cc4cccnc43)CCCC2)cc(O)c1=O [Compound 790] , tested on EN PA (Influenza A virus), IC50: < 100 nM

Record for Cc1ccc(C(C)(C)Cn2cc(O)c(=O)c(C(=O)O)n2)cc1 [Compound 416] under target or system EN PA (Influenza A virus): IC50 reported as < 100 nM

GET /values?item= CC(C)Cc1ccc(-c2ccccc2-n2cc(O)c(=O)c(C(=O)O)n2)cc1 [Compound 37] &system= EN PA (Influenza A virus) returns IC50: 100 to 1000 nM

Values were extracted from patent US10364226B2.
